Data origin: patent US9844566B2

System: Escherichia coli (ATCC No25922 F-50)
Assay: Experimental sepsis model in mice, E. coli: survival on the seventh day
Format: in vivo
Details: Table 3 (0.9% NaCl or NaCl:Colloidal silica); mice infected i.v. 8×10^8 CFU/mouse; i.v. treatment daily for 3 days
Procedure: Determination of therapeutic efficiency of antimicrobial agents was done on experimental models of sepsis and methods for statistical treatment of the obtained results (χ^2) according to [R19 and R20]. Microgerms. […] The antibacterial therapy efficiency was evaluated based on the number of surviving mice on the seventh day after being infected [R19, R20]. […]
// NO strictly below 40% in Mice survival rate on the 7th day of infection, E. coli; YES otherwise

Completed entries (count: 4):
NCC[C@H](O)C(=O)N[C@@H]1C[C@H](N)[C@@H](O[C@H]2O[C@H](CN)[C@@H](O)[C@H](O)[C@H]2O)[C@H](O)[C@H]1O[C@H]1O[C@H](CO)[C@@H](O)[C@H](N)[C@H]1O.O=S(=O)(O)O.O=S(=O)(O)O [Amikacin sulfate/0.9% NaCl solution, amikacin sulfate] | YES
C[C@@H]1O[C@@H]1P(=O)(O)O | YES
C[C@@H](O)[C@H]1C(=O)N2C(C(=O)O)=C(S[C@@H]3CN[C@H](C(=O)N(C)C)C3)[C@H](C)[C@H]12 | YES
CO/N=C(\C(=O)N[C@@H]1C(=O)N2C(C(=O)[O-])=C(C[N+]3(C)CCCC3)CS[C@H]12)c1csc(N)n1 [Cefepime/0.9% NaCl solution, cefepime] | YES

**Q:** Could you please find out whether CO/N=C(\C(=O)N[C@@H]1C(=O)N2C(C(=O)O)=C(COC(C)=O)CS[C@H]12)c1csc(N)n1 has Mice survival rate on the 7th day of infection, E. coli that meets 40% or exceeds it?
**A:** NO

**Q:** Could you please find out whether CC(C)(O/N=C(\C(=O)N[C@@H]1C(=O)N2C(C(=O)[O-])=C(C[n+]3ccccc3)CS[C@H]12)c1csc(N)n1)C(=O)O has Mice survival rate on the 7th day of infection, E. coli that meets 40% or exceeds it?
**A:** YES
